# %max values compiled below
# Target: Muscarinic acetylcholine receptor M5 (Homo sapiens) (UniProt P08912)
# Sequence (whole entry): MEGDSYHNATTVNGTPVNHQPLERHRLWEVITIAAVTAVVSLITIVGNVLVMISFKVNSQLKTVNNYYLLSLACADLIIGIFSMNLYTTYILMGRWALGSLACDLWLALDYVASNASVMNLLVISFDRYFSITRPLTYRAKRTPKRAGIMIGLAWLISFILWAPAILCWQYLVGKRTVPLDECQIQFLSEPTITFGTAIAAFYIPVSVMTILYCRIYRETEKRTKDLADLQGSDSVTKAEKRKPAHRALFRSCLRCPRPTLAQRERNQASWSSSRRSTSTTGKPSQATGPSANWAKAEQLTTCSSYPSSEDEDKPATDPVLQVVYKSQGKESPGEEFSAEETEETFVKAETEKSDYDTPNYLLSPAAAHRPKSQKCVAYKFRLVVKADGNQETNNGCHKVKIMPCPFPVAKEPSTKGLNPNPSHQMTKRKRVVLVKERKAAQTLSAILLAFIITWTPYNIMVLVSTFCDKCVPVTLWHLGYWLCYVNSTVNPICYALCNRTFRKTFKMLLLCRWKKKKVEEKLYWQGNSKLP
# Test: Activation of human muscarinic M5 receptor expressed in CHO cells coexpressing Gq protein assessed as potentiation of acetylcholine-induced intracellular Ca2+ mobilization at 30 uM relative to acetylcholine
# Format: functional, cell-based
Just so you know, I need the unit written after the number.

Q. Bench note: what %max did "Cc1ccc2c(c1)C(=O)C(=O)N2Cc1ccccc1C(F)(F)F" show?
A. 30.6%

Q. Bench note: what %max did "O=C1C(=O)N(Cc2ccc(OC(F)(F)F)cc2)c2c(Cl)ccc(Cl)c21" show?
A. 23.2%

Q. Bench note: what %max did "Cc1ccccc1CN1C(=O)C(=O)c2cc(F)ccc21" show?
A. 40.8%

Q. Bench note: what %max did "O=C1C(=O)N(Cc2ccc(F)cc2F)c2c(Cl)ccc(Cl)c21" show?
A. 19.1%

Q. Bench note: what %max did "COc1ccc(CN2C(=O)C(=O)c3c(Cl)ccc(Cl)c32)cc1" show?
A. 11.7%

Q. Bench note: what %max did "O=C1C(=O)N(Cc2ccc(Br)cc2)c2c(Cl)ccc(Cl)c21" show?
A. 20.7%

Q. Bench note: what %max did "Cc1cccc2c1N(Cc1ccccc1F)C(=O)C2=O" show?
A. 24.6%

Q. Bench note: what %max did "O=C1C(=O)N(Cc2ccc(Br)cc2F)c2ccc(Cl)cc21" show?
A. 30.4%

Q. Bench note: what %max did "O=C1C(=O)N(Cc2c(F)cccc2F)c2ccc(Cl)cc21" show?
A. 31.8%

Q. Bench note: what %max did "COc1cccc(CN2C(=O)C(=O)c3ccccc32)c1" show?
A. 28%

Q. Bench note: what %max did "COc1ccc(CN2C(=O)C(=O)c3cc(F)ccc32)cc1" show?
A. 38.3%

Q. Bench note: what %max did "Cc1ccccc1CN1C(=O)C(=O)c2cc(OC(F)(F)F)ccc21" show?
A. 60%

Q. Bench note: what %max did "O=C1C(=O)N(Cc2ccccc2C(F)(F)F)c2c(F)cccc21" show?
A. 30.9%

Q. Bench note: what %max did "O=C1C(=O)N(Cc2ccc(OC(F)(F)F)cc2)c2ccc(F)cc21" show?
A. 58.4%

Q. Bench note: what %max did "O=C1C(=O)N(Cc2c(F)cccc2F)c2ccc(OC(F)(F)F)cc21" show?
A. 29.8%
